# target: HDAC6 (Homo sapiens)
# Construct: purchased Reaction Biology Corporation (assay run by the CRO)
# Sequence (Q9UBN7 whole entry): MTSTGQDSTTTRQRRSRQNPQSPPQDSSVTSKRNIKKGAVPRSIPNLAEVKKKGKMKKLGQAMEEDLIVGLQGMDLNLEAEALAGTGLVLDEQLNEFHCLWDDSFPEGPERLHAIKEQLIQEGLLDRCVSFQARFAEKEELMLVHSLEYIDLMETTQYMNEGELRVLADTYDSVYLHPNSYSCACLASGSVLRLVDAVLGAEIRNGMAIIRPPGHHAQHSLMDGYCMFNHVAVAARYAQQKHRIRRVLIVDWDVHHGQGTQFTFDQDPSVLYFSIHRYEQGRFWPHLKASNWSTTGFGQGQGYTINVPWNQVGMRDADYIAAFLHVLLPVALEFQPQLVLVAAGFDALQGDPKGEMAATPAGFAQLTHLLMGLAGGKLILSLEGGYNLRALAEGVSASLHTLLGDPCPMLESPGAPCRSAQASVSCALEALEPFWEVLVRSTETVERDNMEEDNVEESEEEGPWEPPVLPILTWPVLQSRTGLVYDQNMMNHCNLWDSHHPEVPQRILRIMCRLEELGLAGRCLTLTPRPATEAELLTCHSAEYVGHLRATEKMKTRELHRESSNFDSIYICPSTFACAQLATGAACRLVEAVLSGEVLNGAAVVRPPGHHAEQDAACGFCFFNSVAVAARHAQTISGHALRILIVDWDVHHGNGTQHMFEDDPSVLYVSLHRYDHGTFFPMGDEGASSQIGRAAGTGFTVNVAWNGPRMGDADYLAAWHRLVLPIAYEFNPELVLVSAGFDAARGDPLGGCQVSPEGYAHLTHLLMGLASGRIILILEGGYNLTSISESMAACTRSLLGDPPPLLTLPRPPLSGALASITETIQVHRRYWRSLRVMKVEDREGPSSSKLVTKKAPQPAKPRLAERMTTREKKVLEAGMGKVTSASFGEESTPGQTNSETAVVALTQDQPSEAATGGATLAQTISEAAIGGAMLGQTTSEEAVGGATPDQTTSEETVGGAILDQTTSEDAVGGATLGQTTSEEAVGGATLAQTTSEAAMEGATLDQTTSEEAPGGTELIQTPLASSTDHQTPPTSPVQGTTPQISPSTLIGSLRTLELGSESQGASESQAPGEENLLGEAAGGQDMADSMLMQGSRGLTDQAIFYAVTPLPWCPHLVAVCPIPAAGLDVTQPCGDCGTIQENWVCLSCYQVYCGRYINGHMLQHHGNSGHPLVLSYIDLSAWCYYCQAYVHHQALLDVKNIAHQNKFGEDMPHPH
# assay: HDAC6 inhibition, full IC50 measurement (Reaction Biology; fluorogenic p53 peptide RHKK(Ac)AMC)
# Format: biochemical
# assay setup: Conc. 4.12E-08 M, t2
Peptide text beside a SMILES is read from it.
measurement kind: HDAC6 activity raw data (signal)
One number for each entry.

Suppose we examine the compound CCCC[C@H]1NC(=O)[C@H](CC(=O)O)NC(=O)[C@@H](CO)NC(=O)[C@@H](C)NC(=O)[C@H](CCCCN)NC(=O)[C@@H](CCCCN)NC(=O)[C@H](Cc2ccccc2)NC(=O)[C@H](CCCCCS)NC1=O [des4.3.1.2, SHA-Phe-dLys-Lys-dAla-dSer-Asp-dNle] (HELM PEPTIDE1{D.[CCCC[C@@H](N[*:1])C(=O)[*:2]].[O=C([C@H](CCCCCS)N[*:1])[*:2]].F.[dK].K.[dA].[dS]}$PEPTIDE1,PEPTIDE1,1:R1-8:R2$$$V2.0) ; what HDAC6 activity raw data (signal) value has been reported?
1649164
